# System: Staphylococcus aureus
# EXPERIMENTAL_PROTOCOL: Minimum inhibitory concentration against Staphylococcus aureus ATCC 6538PEry-S
# Type: functional
# CONDITION_INFO: ATCC 6538P
RESULT_TYPE: MIC (µg/mL)

Example results:
CC[C@H]1OC(=O)[C@H](C)C(=O)[C@H](C)[C@@H](O[C@@H]2O[C@H](C)C[C@H](N(C)C)[C@H]2O)[C@](C)(OC/C=C/c2ccc3ncncc3c2)C[C@@H](C)C(=O)[C@H](C)[C@H]2NC(=O)O[C@@]21C; 0.2
CC[C@H]1OC(=O)[C@H](C)C(=O)[C@H](C)[C@@H](O[C@@H]2O[C@H](C)C[C@H](N(C)C)[C@H]2O)[C@](C)(OC/C=C/c2ccnc3ccccc23)C[C@@H](C)C(=O)[C@H](C)[C@H]2NC(=O)O[C@@]21C; 0.2
CC[C@H]1OC(=O)[C@H](C)[C@@H](O[C@H]2C[C@@](C)(OC)[C@@H](O)[C@H](C)O2)[C@H](C)[C@@H](O[C@@H]2O[C@H](C)C[C@H](N(C)C)[C@H]2O)[C@](C)(OC/C=C/c2cnc3ccccc3c2)C[C@@H](C)C(=O)[C@H](C)[C@@H](O)[C@]1(C)O; 0.2
CC[C@H]1OC(=O)[C@H](C)C(=O)[C@H](C)[C@@H](O[C@@H]2O[C@H](C)C[C@H](N(C)C)[C@H]2O)[C@](C)(OCCCc2cnc3ccccc3c2)C[C@@H](C)C(=O)[C@H](C)[C@H]2NC(=O)O[C@@]21C; 0.1

P. CC[C@H]1OC(=O)[C@H](C)C(=O)[C@H](C)[C@@H](O[C@@H]2O[C@H](C)C[C@H](N(C)C)[C@H]2O)[C@](C)(OCCNCc2ccncc2)C[C@@H](C)C(=O)[C@H](C)[C@@H](O)[C@]1(C)O
Q. CC[C@H]1OC(=O)[C@H](C)C(=O)[C@H](C)[C@@H](O[C@@H]2O[C@H](C)C[C@H](N(C)C)[C@H]2O)[C@](C)(OCCNCCCCc2ccccc2)C[C@@H](C)C(=O)[C@H](C)[C@H]2NC(=O)O[C@@]21C
For P and Q , which recorded MIC is lower? Refer to your chosen entry by its label in the reply.
Q

A. CC[C@H]1OC(=O)[C@H](C)C(=O)[C@H](C)[C@@H](O[C@@H]2O[C@H](C)C[C@H](N(C)C)[C@H]2O)[C@](C)(OC/C=C/c2cnc3ccccc3c2)C[C@@H](C)C2=NCCN3C(=O)O[C@@]1(C)[C@H]3[C@H]2C
B. C=CCO[C@]1(C)C[C@@H](C)C(=O)[C@H](C)[C@H]2NC(=O)O[C@]2(C)[C@@H](CC)OC(=O)[C@H](C)C(=O)[C@H](C)[C@H]1O[C@@H]1O[C@H](C)C[C@H](N(C)C)[C@H]1O
Of A and B , which shows the smaller MIC value? Please respond with the label that marks your chosen entry.
A
(A: 0.05 µg/mL, B: 0.78 µg/mL)

I. CC[C@H]1OC(=O)[C@H](C)C(=O)[C@H](C)[C@@H](O[C@@H]2O[C@H](C)C[C@H](N(C)C)[C@H]2O)[C@](C)(OCCNCCc2ccccc2)C[C@@H](C)C(=O)[C@H](C)[C@H]2NC(=O)O[C@@]21C
II. C=CCO[C@]1(C)C[C@@H](C)C2=NCCN3C(=O)O[C@](C)([C@@H](CC)OC(=O)[C@H](C)C(=O)[C@H](C)[C@H]1O[C@@H]1O[C@H](C)C[C@H](N(C)C)[C@H]1O)[C@H]3[C@H]2C
When their MIC values are compared, which is larger, I or II ? Selection: enter the item's label.
II

* * *

# EXPERIMENTAL_PROTOCOL: Minimum inhibitory concentration against Streptococcus pyogenes 930MLSB
# Type: functional
RESULT_TYPE: MIC (µg/mL)

A. CC[C@H]1OC(=O)[C@H](C)C(=O)[C@H](C)[C@@H](O[C@@H]2O[C@H](C)C[C@H](N(C)C)[C@H]2O)[C@](C)(OCCNCc2cnc3ccccc3c2)C[C@@H](C)C(=O)[C@H](C)[C@H]2NC(=O)O[C@@]21C
B. CC[C@H]1OC(=O)[C@H](C)C(=O)[C@H](C)[C@@H](O[C@@H]2O[C@H](C)C[C@H](N(C)C)[C@H]2O)[C@](C)(OC/C=C/c2cnc3ncccc3c2)C[C@@H](C)C(=O)[C@H](C)[C@H]2NC(=O)O[C@@]21C
C. CC[C@H]1OC(=O)[C@H](C)C(=O)[C@H](C)[C@@H](O[C@@H]2O[C@H](C)C[C@H](N(C)C)[C@H]2O)[C@](C)(OC/C=C/c2cnc3sccc3c2)C[C@@H](C)C(=O)[C@H](C)[C@H]2NC(=O)O[C@@]21C
D. CC[C@H]1OC(=O)[C@H](C)C(=O)[C@H](C)[C@@H](O[C@@H]2O[C@H](C)C[C@H](N(C)C)[C@H]2O)[C@](C)(OCCNCCCc2ccccc2)C[C@@H](C)C(=O)[C@H](C)[C@H]2NC(=O)O[C@@]21C
Order the above compounds by increasing MIC. Arrange the labels as the request states and list them.
B, C, A, D
(B: 0.5 µg/mL, C: 4 µg/mL, A: 16 µg/mL, D: 64 µg/mL)

* * *

# EXPERIMENTAL_PROTOCOL: Minimum inhibitory concentration against Streptococcus pyogenes 930MLSB
# Type: functional
RESULT_TYPE: MIC (µg/mL)

CC[C@H]1OC(=O)[C@H](C)C(=O)[C@H](C)[C@@H](O[C@@H]2O[C@H](C)C[C@H](N(C)C)[C@H]2O)[C@](C)(OC/C=C/c2cnc3ccsc3c2)C[C@@H](C)C(=O)[C@H](C)[C@H]2NC(=O)O[C@@]21C; 1

I. CC[C@H]1OC(=O)[C@H](C)C(=O)[C@H](C)[C@@H](O[C@@H]2O[C@H](C)C[C@H](N(C)C)[C@H]2O)[C@](C)(OCCCc2ccccc2)C[C@@H](C)C(=O)[C@H](C)[C@@H](O)[C@]1(C)O
II. CC[C@H]1OC(=O)[C@H](C)C(=O)[C@H](C)[C@@H](O[C@@H]2O[C@H](C)C[C@H](N(C)C)[C@H]2O)[C@](C)(OC/C=C/c2ccc3ncccc3c2)C[C@@H](C)C(=O)[C@H](C)[C@H]2NC(=O)O[C@@]21C
III. CC[C@H]1OC(=O)[C@H](C)C(=O)[C@H](C)[C@@H](O[C@@H]2O[C@H](C)C[C@H](N(C)C)[C@H]2O)[C@](C)(OCCCc2cnc3ccccc3c2)C[C@@H](C)C(=O)[C@H](C)[C@H]2NC(=O)O[C@@]21C
IV. CC[C@H]1OC(=O)[C@H](C)C(=O)[C@H](C)[C@@H](O[C@@H]2O[C@H](C)C[C@H](N(C)C)[C@H]2O)[C@](C)(OC/C=C/c2ccc3ccccc3n2)C[C@@H](C)C(=O)[C@H](C)[C@H]2NC(=O)O[C@@]21C
V. CC[C@H]1OC(=O)[C@H](C)C(=O)[C@H](C)[C@@H](O[C@@H]2O[C@H](C)C[C@H](N(C)C)[C@H]2O)[C@](C)(OC/C=C/c2ccc(Cl)cc2)C[C@@H](C)C(=O)[C@H](C)[C@@H](O)[C@]1(C)O
Hey, can you sort those compounds up there by MIC, smallest first? List the labels in the requested order.
II, III, IV, V, I

1. CC[C@H]1OC(=O)[C@H](C)C(=O)[C@H](C)[C@@H](O[C@@H]2O[C@H](C)C[C@H](N(C)C)[C@H]2O)[C@](C)(OC/C=C/c2ccnc3ccccc23)C[C@@H](C)C(=O)[C@H](C)[C@H]2NC(=O)O[C@@]21C
2. CC[C@H]1OC(=O)[C@H](C)C(=O)[C@H](C)[C@@H](O[C@@H]2O[C@H](C)C[C@H](N(C)C)[C@H]2O)[C@](C)(OC/C=C/c2ccc3[nH]cnc3c2)C[C@@H](C)C(=O)[C@H](C)[C@H]2NC(=O)O[C@@]21C
Lab notebook, comparison: 1 versus 2 , higher MIC goes to which? Field: selected label. Fill in the label of the entry you choose.
1

a. CC[C@H]1OC(=O)[C@H](C)C(=O)[C@H](C)[C@@H](O[C@@H]2O[C@H](C)C[C@H](N(C)C)[C@H]2O)[C@](C)(OC/C=C/c2cncc3ccccc23)C[C@@H](C)C(=O)[C@H](C)[C@H]2NC(=O)O[C@@]21C
b. CC[C@H]1OC(=O)[C@H](C)C(=O)[C@H](C)[C@@H](O[C@@H]2O[C@H](C)C[C@H](N(C)C)[C@H]2O)[C@](C)(OC/C=C/c2ccccc2)C[C@@H](C)C(=O)[C@H](C)[C@H]2NC(=O)O[C@@]21C
Lab notebook, comparison: a versus b , higher MIC goes to which? # respond with the chosen item's label
b
(b: 64 µg/mL, a: 8 µg/mL)

Data credit: ChEMBL document CHEMBL1134286
